- subject of test: δ-receptor (Mus musculus, UniProt P32300)
- Construct: from tissue; host or cells: mouse vas deferens
- Sequence (P32300 whole entry): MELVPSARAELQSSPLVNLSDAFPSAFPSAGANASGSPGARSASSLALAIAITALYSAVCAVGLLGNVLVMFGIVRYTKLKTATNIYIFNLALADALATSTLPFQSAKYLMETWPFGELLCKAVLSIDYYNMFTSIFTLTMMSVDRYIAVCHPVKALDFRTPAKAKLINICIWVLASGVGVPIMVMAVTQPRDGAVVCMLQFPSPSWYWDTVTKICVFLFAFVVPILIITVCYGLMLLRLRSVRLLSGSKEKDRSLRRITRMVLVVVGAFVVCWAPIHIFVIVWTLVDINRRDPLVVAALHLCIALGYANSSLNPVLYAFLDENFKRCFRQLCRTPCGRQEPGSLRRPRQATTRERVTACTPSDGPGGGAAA
- experiment summary: Antagonism to DPDPE in Mouse Vas Deferens (MVD)
- assay setup: at 100 nM
test readout: Kb (nM)
Give the value in nM but do not write nM after it.

1) Oc1cccc([C@]23CCN(CC4CC4)C[C@@H]2Cc2c([nH]c4ccccc24)C3)c1 (single isomer, unassigned)
158
2) CN1CC[C@]2(c3cccc(O)c3)Cc3[nH]c4ccc(Cl)cc4c3C[C@H]2C1 (relative stereo)
240

Look up and state reported Kb for Cc1ccc2[nH]c3c(c2c1)C[C@H]1CN(C)CC[C@]1(c1cccc(O)c1)C3 (relative stereo)
427

Look up and state reported Kb for CN1CC[C@]2(c3cccc(O)c3)Cc3c(c4ccccc4n3C)C[C@H]2C1 (relative stereo)
138

Look up and state reported Kb for CN1CC[C@]2(c3cccc(O)c3)Cc3[nH]c4ccccc4c3C[C@H]2C1 (relative stereo)
138

###

- subject of test: δ opioid receptor (Cavia porcellus)
- Construct: the homogenate of the brain of a guinea pig; from tissue; host or cells: guinea pig brain homogenate
- Sequence (A0A286XTF2 1-366): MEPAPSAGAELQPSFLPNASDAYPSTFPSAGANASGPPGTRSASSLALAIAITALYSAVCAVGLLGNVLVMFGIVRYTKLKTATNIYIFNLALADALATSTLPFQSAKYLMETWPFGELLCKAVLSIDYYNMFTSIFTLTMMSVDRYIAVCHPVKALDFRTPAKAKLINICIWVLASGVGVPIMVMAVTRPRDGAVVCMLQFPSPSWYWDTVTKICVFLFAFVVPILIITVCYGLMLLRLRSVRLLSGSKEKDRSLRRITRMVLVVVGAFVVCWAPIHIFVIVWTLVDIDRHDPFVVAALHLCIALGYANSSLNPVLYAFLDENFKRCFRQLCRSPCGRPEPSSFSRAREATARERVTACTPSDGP
- experiment summary: Bonding (binding) assay, guinea pig brain homogenate, DPDPE (hot) / DADLE (cold)
test readout: pKi
FYI, pKi means -log10 of a concentration in mol per litre.

1. C=CCN1CC[C@]2(c3cccc(O)c3)Cc3[nH]c4ccccc4c3C[C@H]2C1 (relative stereo)
8.53
2. Oc1cccc([C@]23CCN(CC4CC4)C[C@@H]2Cc2c([nH]c4c(Cl)cccc24)C3)c1 (relative stereo)
8.08
3. Oc1cccc([C@]23CCN(CC4CC4)C[C@@H]2Cc2c([nH]c4ccccc24)C3)c1 (single isomer, unassigned) [Compound 47]
9.43

Look up and state reported pKi for CN1CC[C@]2(c3cccc(O)c3)Cc3[nH]c4c(F)cccc4c3C[C@H]2C1 (relative stereo)
7.23

Look up and state reported pKi for Oc1cccc([C@]23CCN(CC4CC4)C[C@@H]2Cc2c([nH]c4ccc(F)cc24)C3)c1 (relative stereo)
8.16

Look up and state reported pKi for Oc1cccc([C@]23CCN(CC4CC4)C[C@]2(O)Cc2c([nH]c4ccccc24)C3)c1 (relative stereo)
8.77

Look up and state reported pKi for Cn1c2c(c3ccccc31)C[C@H]1CN(CC3CC3)CC[C@]1(c1cccc(O)c1)C2 (relative stereo)
8.56

Look up and state reported pKi for Oc1cccc([C@]23CCN(CC4CC4)C[C@@H]2Cc2c([nH]c4c(F)cccc24)C3)c1 (relative stereo)
8.72

Look up and state reported pKi for CN1CC[C@]2(c3cccc(O)c3)Cc3[nH]c4ccccc4c3C[C@@]2(O)C1 (relative stereo)
8.56

Look up and state reported pKi for Oc1cccc([C@]23CCN(CC4CC4)C[C@@H]2Cc2c([nH]c4ccccc24)C3)c1 (relative stereo) [Compound 19]
8.46

###

As an illustration, consider measured pKi for compounds on μ opioid receptor (Cavia porcellus, UniProt A0ACM8Q262).
Sequence (A0ACM8Q262 1-400): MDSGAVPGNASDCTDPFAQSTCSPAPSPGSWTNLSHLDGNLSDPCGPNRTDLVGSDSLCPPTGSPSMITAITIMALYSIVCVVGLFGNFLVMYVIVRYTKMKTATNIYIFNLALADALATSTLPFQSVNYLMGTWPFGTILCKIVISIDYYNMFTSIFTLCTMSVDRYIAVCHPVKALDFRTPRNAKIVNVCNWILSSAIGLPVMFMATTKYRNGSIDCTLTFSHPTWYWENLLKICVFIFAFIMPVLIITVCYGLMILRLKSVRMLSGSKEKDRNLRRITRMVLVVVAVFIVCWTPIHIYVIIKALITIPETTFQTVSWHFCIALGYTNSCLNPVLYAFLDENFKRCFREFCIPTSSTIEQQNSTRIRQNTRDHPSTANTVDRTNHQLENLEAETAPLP
FYI, pKi means -log10 of a concentration in mol per litre.

1) CN1CC[C@]2(c3cccc(O)c3)Cc3[nH]c4c(F)cccc4c3C[C@H]2C1 (relative stereo)
5.34
2) Oc1cccc([C@]23CCN(CC4CC4)C[C@@H]2Cc2c([nH]c4c(F)cccc24)C3)c1 (relative stereo)
5.93
3) Oc1cccc([C@]23CCN(CC4CC4)C[C@]2(O)Cc2c([nH]c4ccccc24)C3)c1 (relative stereo)
6.14
4) Cn1c2c(c3ccccc31)C[C@H]1CN(CC3CC3)CC[C@]1(c1cccc(O)c1)C2 (relative stereo)
5.82
5) C=CCN1CC[C@]2(c3cccc(O)c3)Cc3[nH]c4ccccc4c3C[C@H]2C1 (relative stereo)
4.57

Would you please give the reported pKi of Oc1cccc([C@]23CCN(CC4CC4)C[C@@H]2Cc2c([nH]c4ccc(F)cc24)C3)c1 (relative stereo) with μ opioid receptor (Cavia porcellus, UniProt A0ACM8Q262)?
5.81

Would you please give the reported pKi of Oc1cccc([C@]23CCN(CC4CC4)C[C@@H]2Cc2c([nH]c4c(Cl)cccc24)C3)c1 (relative stereo) with μ opioid receptor (Cavia porcellus, UniProt A0ACM8Q262)?
5.78
